TESTED_ON: human DGAT2 (Homo sapiens, UniProt Q96PD7)
Construct: FLAG (DYKDDDDK); membrane fraction used
Sequence (Q96PD7 whole entry): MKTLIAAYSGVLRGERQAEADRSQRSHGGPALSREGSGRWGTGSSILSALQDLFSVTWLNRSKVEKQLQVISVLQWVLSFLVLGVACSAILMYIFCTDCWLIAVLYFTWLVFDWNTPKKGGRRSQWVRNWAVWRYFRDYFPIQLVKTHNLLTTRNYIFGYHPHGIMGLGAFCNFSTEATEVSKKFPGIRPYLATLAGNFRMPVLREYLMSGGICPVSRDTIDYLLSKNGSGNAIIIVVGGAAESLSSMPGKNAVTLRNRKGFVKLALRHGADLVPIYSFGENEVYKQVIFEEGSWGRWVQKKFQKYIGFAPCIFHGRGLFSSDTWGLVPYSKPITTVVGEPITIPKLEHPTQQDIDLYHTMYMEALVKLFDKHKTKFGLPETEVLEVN
METHOD_SUMMARY: DGAT2 enzyme activity inhibition, Phospholipid FlashPlate SPA
PROTOCOL_CONDITIONS: recombinant human DGAT2 membrane protein from Sf-21 cells; inhibition of [14C]-TG production; 37° C.
MEASURED_PARAMETER: pIC50
In textbook form, pIC50 equals minus log to base ten of the concentration in mol/L.

These solved cases illustrate the format of a correct answer.
INSERT INTO assay_data (compound, obs_value) VALUES
  ('CCOc1cccnc1O[C@@H]1CCCN(c2cncc(Nc3nccc(O[C@H]4CC[C@@H](C(=O)O)CC4)n3)n2)C1 [Example 138]', 6.11),
  ('CCOc1ccccc1O[C@@H]1CCCN(c2cncc(Nc3ccnc(-c4ccc(OC(C)(C)C(=O)O)cc4)n3)n2)C1 [Example 178]', 6.31),
  ('CCOc1cccnc1O[C@@H]1CCCN(c2cncc(Nc3cccc(Oc4cccc(CC(=O)O)c4)n3)n2)C1 [Example 96]', 7.06);

*Q* // pIC50 lookup, key: CCOc1ccccc1O[C@@H]1CCCN(c2cncc(Nc3cccc(-c4cc(OC(C)(C)C(=O)O)ccc4F)n3)n2)C1 [Example 84]
*A* 6.40

*Q* // pIC50 lookup, key: CCOc1ccccc1O[C@@H]1CCCN(c2cncc(Nc3ccnc(-c4ccc(CC(C)(C)C(=O)O)cc4)n3)n2)C1 [Example 172]
*A* 6.60

*Q* // pIC50 lookup, key: CCOc1ccccc1O[C@@H]1CCCN(c2cncc(Nc3nccc(C4CC5CC4CC5C(=O)O)n3)n2)C1 (stereo partly shown) [Example 124]
*A* 6.47
